Reference source: ChEMBL document CHEMBL4402513

- System: Quadruplex DNA
- assay.details: Binding affinity to synthetic BCL2 G4 quadruplex DNA assessed as change in melting temperature at 10 molar equiv to DNA measured after 10 mins by circular dichroism melting analysis
- Type: nucleic-acid assay
observable: ΔTm

>>> recorded_measurement("CN(C)CCCn1cnc2c1ncn1c(NC(C)(C)C)c(-c3ccc(N(C)C)cc3)nc21")
"16.9 °C"
>>> recorded_measurement("CC(C)(C)Nc1c(-c2ccccc2OCCN2CCCC2)nc2c3ncn(CCN4CCCC4)c3ncn12")
"7.1 °C"
>>> recorded_measurement("CN(C)c1ccc(-c2nc3c4ncn(CCCNC(=N)N)c4ncn3c2NC(C)(C)C)cc1")
"2.8 °C"
>>> recorded_measurement("CC(C)(C)Nc1c(-c2ccccc2F)nc2c3ncn(CCN4CCOCC4)c3ncn12")
"2.6 °C"
>>> recorded_measurement("CN(C)CCCn1cnc2c1ncn1c(NC(C)(C)C)c(-c3ccc(Cl)cc3)nc21")
"6.7 °C"

---

- experimental.target: Quadruplex DNA
- assay.details: Binding affinity to synthetic Cy5-fluorescently labeled BCL2 G4 quadruplex DNA by microscale thermophoresis method
- Type: nucleic-acid assay
pKd: −log10 of the molar value.
observable: pKd

>>> recorded_measurement("CN(C)CCCn1cnc2c1ncn1c(NC(C)(C)C)c(-c3ccc(Cl)cc3)nc21")
4.22

---

- Test system: Quadruplex DNA
- assay.details: Binding affinity to synthetic c-MYC G4 quadruplex DNA assessed as change in melting temperature at 10 molar equiv to DNA measured after 10 mins by circular dichroism melting analysis
- Format: nucleic-acid assay
As shown below, each of these compounds has a reported ΔTm value.
observable: ΔTm (°C)

>>> recorded_measurement("CC(C)(C)Nc1c(-c2ccccc2F)nc2c3ncn(CCN4CCCC4)c3ncn12")
5.8
>>> recorded_measurement("CC(C)(C)Nc1c(-c2ccc(N3CCOCC3)cc2)nc2c3ncn(CCN4CCCC4)c3ncn12")
8.7
>>> recorded_measurement("CC(C)(C)Nc1c(-c2ccc(N3CCOCC3)cc2)nc2c3ncn(CCN4CCOCC4)c3ncn12")
2.1
>>> recorded_measurement("CN(C)CCCn1cnc2c1ncn1c(NC(C)(C)C)c(-c3ccccc3F)nc21")
11.5
>>> recorded_measurement("CN(C)c1ccc(-c2nc3c4ncn(CCN5CCCC5)c4ncn3c2NC(C)(C)C)cc1")
19.5
>>> recorded_measurement("CN(C)c1ccc(-c2nc3c4ncn(CCCNC(=N)N)c4ncn3c2NC(C)(C)C)cc1")
2.5
>>> recorded_measurement("CC(C)(C)Nc1c(-c2ccccc2OCCN2CCCC2)nc2c3ncn(CCN4CCCC4)c3ncn12")
8.4
>>> recorded_measurement("CN(C)CCCn1cnc2c1ncn1c(NC(C)(C)C)c(-c3ccc(Cl)cc3)nc21")
12.8
>>> recorded_measurement("CN(C)c1ccc(-c2nc3c4ncn(CCN5CCOCC5)c4ncn3c2NC(C)(C)C)cc1")
7.2
>>> recorded_measurement("CC(C)(C)Nc1c(-c2ccccc2F)nc2c3ncn(CCN4CCOCC4)c3ncn12")
1.9
>>> recorded_measurement("CN(C)c1ccc(-c2nc3c4ncn(CCCN)c4ncn3c2NC(C)(C)C)cc1")
1.1
>>> recorded_measurement("CC(C)(C)Nc1c(-c2ccc(Cl)cc2)nc2c3ncn(CCN4CCCC4)c3ncn12")
6.4
>>> recorded_measurement("CN(C)CCCn1cnc2c1ncn1c(NC(C)(C)C)c(-c3ccc(N4CCOCC4)cc3)nc21")
9.5
>>> recorded_measurement("CC(C)(C)Nc1c(-c2ccc(Cl)cc2)nc2c3ncn(CCN4CCOCC4)c3ncn12")
1.6
>>> recorded_measurement("CC(C)(C)Nc1c(-c2ccccc2OCCN2CCOCC2)nc2c3ncn(CCN4CCOCC4)c3ncn12")
1.9
